Tested on: 786-0 renal
Assay: NCI-60 one-dose screen, 48 h (100 = growth as untreated, 0 = no growth, -100 = all killed)
Conditions: 10 µM unless noted
This is part of a sample that, as a whole, favours compounds with a hit. Of some 83,000 tested, about 20% had one in any assay.
observable: growth (%)
Just the number please, in %, no unit attached.

Entry under test: CN1CCN(Cc2ccc(NC(=O)c3cncc(C#Cc4cnc5[nH]ncc5c4)c3)cc2C(F)(F)F)CC1 . Its growth was 45.7

Note to self: growth recorded for COc1ccc(-c2csc(N/N=C/c3c(-c4ccc(S(C)(=O)=O)cc4)nc4ccccn34)n2)cc1 was 82.7

The recorded growth for Cc1sc2c(c1C)c(=O)nc1c(-c3nc(-c4ccc(F)cc4)no3)n[nH]n12 is 99.4

Briefly, growth measured for O=C(N/N=C/c1ccc[nH]1)c1[nH]c2ccc(Br)cc2c1-c1ccccc1 : 13.7

* * *

System: BT-549 breast
Assay: NCI-60 one-dose screen, 48 h (100 = growth as untreated, 0 = no growth, -100 = all killed)
Conditions: 10 µM unless noted
Compounds without any hit were thinned out: in the full panel of roughly 83,000, 20% have a hit. The source made the active and inactive calls. The calls were made as follows: active = growth percent below 10; inactive = the rest.
observable: growth

Reference set (10 entries):
{"columns": ["compound", "measured.target", "reported.value"],
 "data": [
  ["COc1cc2nc(-c3ccc(C)cc3)cc(OCCCNCC3CCCO3)c2cc1OC (centres undefined)", "BT-549 breast", "98.5% (inactive)"],
  ["CN(C)S(=O)(=O)c1oc(-c2ccccc2)nc1C#N", "BT-549 breast", "64.4% (inactive)"],
  ["Fc1ccc(-c2cc3nc(C(Cl)Cl)nc(-c4ccc(Cl)cc4)n3n2)cc1", "BT-549 breast", "72.4% (inactive)"],
  ["COc1cc(/C=C/C(=O)c2cc(OC)c(OC)c(OC)c2)ccc1OCc1ccc(F)cc1", "BT-549 breast", "8.09% (active)"],
  ["COc1ccc(-c2nc3ccc(-c4nnc(SCC(=O)Nc5ccc(C(=O)/C=C/c6ccc(Cl)cc6)cc5)o4)cc3[nH]2)cc1OC", "BT-549 breast", "106% (inactive)"],
  ["Clc1ccc2c(NCCCn3ccnc3)c3oc4ccccc4c3nc2c1", "BT-549 breast", "81.2% (inactive)"],
  ["Cc1nc(-c2cc3ccccc3oc2=O)ccc1C(=O)/C=C/c1ccc(N2CCOCC2)cc1", "BT-549 breast", "76.9% (inactive)"],
  ["CC(C)Sc1nc(Nc2ccc(S(N)(=O)=O)cc2)c(C#N)c(-c2ccc(F)cc2)n1", "BT-549 breast", "53.3% (inactive)"],
  ["COc1ccc(C(=O)/C=C/c2ccc(OCc3ccc(Cl)cc3)c(OC)c2)cc1OC", "BT-549 breast", "62.1% (inactive)"],
  ["Cc1cc(C(NC(=O)CCCCCNc2cccc3c2C(=O)N(C2CCC(=O)NC2=O)C3=O)c2cccnc2)c(O)c2ncccc12 (centres undefined)", "BT-549 breast", "-30.8% (active)"]
]}

// field: growth; key: CSc1ccc2c(c1)N(C(=O)/C(C#N)=C/c1c[nH]c3ccccc13)c1ccccc1S2 ; value = 55.8% (inactive)

Measured growth, CCN1C(=S)N(CC)C2C1NN=C1SC(c3ccccc3)=CC(=O)N12 (centres undefined) : 106% (inactive)

The recorded growth for entry Nc1nc(N)c2c(n1)NC(c1ccc(F)cc1)CC(c1ccc(Nc3nc(NCCO)nc(Nc4ccc(Cl)cc4)n3)cc1)=N2 (centres undefined) equals 42.7% (inactive)

Lookup result for CC(=O)Oc1ccccc1C(=O)Nc1ccc(C(=O)/C=C/c2ccncc2)cc1 ; measured growth: 57.1% (inactive)

The reported value for CN(C)CCCOc1c2ccc(Cl)cc2nc2c1oc1ccccc12 in terms of growth is 8.05% (active)
